Data provenance is the METLIN SMRT retention time set (Domingo-Almenara et al. 2019).

measurement-notes: gradient 5% acetonitrile 3 min, to 50% in 2 min, to 85% in 15 min, held 3 min, 100 µL/min
test-settings: column: Zorbax Extend-C18 2.1 x 50 mm; eluents: water / acetonitrile, 0.1% formic acid
The entries below are paired with their reported RP-LC retention time.
Answer with a number only, understood to be in s.

Worked cases, RP-LC retention time given:
[[record]]
molecule = "CCn1cc(C2=CCN(S(=O)(=O)c3ccc(OC)cc3)CC2)c2cccnc21"
quantitative_result = 986

[[record]]
molecule = "CC1CS(=O)(=O)N(c2ccc(C(=O)N3CCN(c4ccccn4)CC3)cc2)C1=O (configuration not stated)"
quantitative_result = 554

[[record]]
molecule = "COCC(=O)NC1CCC12CCN(S(=O)(=O)c1c(C)noc1C)CC2 (configuration not stated)"
quantitative_result = 740

[[record]]
molecule = "CCCn1cnc2ccc(-c3noc(-c4ccccc4F)n3)cc21"
quantitative_result = 812


Challenge: Could you tell me which RP-LC retention time is on file for Cc1cc(C(=O)NCCN2CCN(c3cccc(C)c3C)CC2)n(-c2ccccc2)n1 ?
Response given: 705

Challenge: Another molecule to look at: COCCNC(=O)c1nnn(-c2cccc(Cl)c2)c1-c1ccncc1
Response given: 690

Challenge: Also CCCN1CCN(C(=O)c2nc(N3CCSCC3)c3cnn(C)c3n2)CC1 ?
Response given: 576

Challenge: Then this molecule: CN1CCCC1c1nc(C2CN(C(=O)Cn3c(=O)oc4ccccc43)C2)no1 (configuration not stated)
Response given: 582

---

measurement-notes: gradient 5% acetonitrile 3 min, to 50% in 2 min, to 85% in 15 min, held 3 min, 100 µL/min
test-settings: column: Zorbax Extend-C18 2.1 x 50 mm; eluents: water / acetonitrile, 0.1% formic acid
Some compounds, each annotated with its measured RP-LC retention time.

[[record]]
compound = "Cc1cc(F)ccc1NC(=O)Cn1c(N)nc(C)c(C)c1=O"
readout_type = "RP-LC retention time"
result = "617 s"

[[record]]
compound = "O=C(CCC1NC(=O)c2ccccc2NC1=O)NCc1nc(-c2ccccc2)no1 (stereo unspecified)"
readout_type = "RP-LC retention time"
result = "624 s"

[[record]]
compound = "Clc1nnc(N2CCSCC2)c2ccccc12"
readout_type = "RP-LC retention time"
result = "845 s"


Challenge: Tell me the measured RP-LC retention time of COc1ccc(CNC(=O)c2nc3cccnc3n(C)c2=O)cc1 , please.
Response given: 742 s

Challenge: What do we get for CCc1nc(-c2csc(S(=O)(=O)N3CCCC(C(=O)N(C)c4ccc(C)cc4)C3)c2)no1 (stereo unspecified) ?
Response given: 1060 s

Challenge: Can you handle Cc1ccc(CNC(=O)C2CCCN(c3nnc(C)c4c(C)n(-c5ccccc5)nc34)C2)cc1 (stereo unspecified) next?
Response given: 726 s

Challenge: How about O=C(Cn1nc(C(=O)N2CCCC2)c2ccccc21)Nc1cccc(Cl)c1 ?
Response given: 875 s

Challenge: Another compound to look at: C=CCN1C(=O)COc2ccc(-c3nc(NC(=O)c4ccncc4)sc3C)cc21
Response given: 810 s

---

measurement-notes: gradient 5% acetonitrile 3 min, to 50% in 2 min, to 85% in 15 min, held 3 min, 100 µL/min
test-settings: column: Zorbax Extend-C18 2.1 x 50 mm; eluents: water / acetonitrile, 0.1% formic acid
// RP-LC retention time lookup, one value per entry
Only the number, expressed in s, is required.

Answered examples (3):
[[record]]
smiles_entry = "CCOc1ccc(-n2nnc(C(=O)OC)c2C(=O)OC)cc1"
quantitative_result = 882

[[record]]
smiles_entry = "COC(=O)c1ccc(CSc2nnc(NC(=O)c3nc4ccccc4s3)s2)o1"
quantitative_result = 904

[[record]]
smiles_entry = "CCCn1cc(CCNC(=O)Nc2ccc(Cl)cc2F)c2cccnc21"
quantitative_result = 876


API: the following record is the query input.
Challenge: Which RP-LC retention time reading was recorded for the compound CCN(CC)C(=O)c1ccc(Cn2nc(C)c(S(=O)(=O)N3CCC(C)CC3)c2C)cc1 ?
Response given: 917
